- study.target: Dihydroorotate dehydrogenase (quinone), mitochondrial (Plasmodium falciparum (isolate 3D7))
- protocol.notes: PfDHODH enzyme inhibitors, primary screen, biochemical, C-terminal His tag, absorbance 600 nm (AID 1175);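 also: recombinant parasite enzyme with a five histidine tag at its C terminus; test concentration not given here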
- particulars: DCIP absorbance 600 nm, higher = more signal, called active from +8 up or from −8 down
Entries are sorted into classes by composite z-score as follows: interval 1 (below -0.4), interval 2 (-0.4 to below 0.04), interval 3 (0.04 or more)

{"columns": ["molecule", "discrete.label"],
 "data": [
  ["CCC(=O)[C@@]1(O)C(=O)N2C(=C3C(=O)OCC[C@@H]31)N(Cc1ccccc1)C(C)=C(C(=O)OC)[C@H]2c1ccccc1", "interval 1"],
  ["CCN1C(=O)[C@H]2[C@H]3[C@H](O)[C@H](O)CC(=NOCC(C)C)[C@@H]3CC[C@H]2C1=O", "interval 1"],
  ["COC(=O)CC=C[C@@H](C)[C@@H](C=NOCC[C@@H]1C=C[C@H](OC(C)=O)[C@@H](COC(C)=O)O1)NS(=O)(=O)c1ccc(C)cc1", "interval 3"],
  ["CCOC(=O)[C@H](Cc1ccccc1)NC(=O)CCC1CC(OC(=O)NCCc2ccc(F)cc2)CC2(CCCC(COC(=O)NCC3CCCCC3)O2)O1 (stereo not given in full)", "interval 2"],
  ["Cc1ccc(S(=O)(=O)NC(CCc2ccccc2)CC(=O)C(C)(C)C)cc1 (stereo not given)", "interval 2"],
  ["Cc1cc2c(nc1C)CCCCN2CC(C)ON=C1[C@H]2CCn3c(=O)n(-c4ccccc4)c(=O)n3[C@H]2[C@H](O)[C@@H]2O[C@H]12 (stereo not given in full)", "interval 1"]
]}

In plain terms, what class is COC(=O)[C@@H]1CC[C@H](C)[C@@H](c2ccc(C)cc2)N1C(=O)c1ccc(C=NO[C@H](C)c2cn([C@@H]3COC[C@H]3O)nn2)cc1 ? interval 3

In plain terms, what class is CO[C@H]1COC(=O)CC=C[C@@H](C)[C@H](OC)COC(=O)[C@@H]2CCCN2C(=O)CC=C[C@@H]1C ? interval 3

In plain terms, what class is COCOc1ccc(Br)cc1C(=O)[C@@H]1O[C@H]1c1cccc(OC)c1 ? interval 2

In plain terms, what class is CO[C@@H]1COC(=O)CC=C[C@H](C)[C@H](OC)COC(=O)[C@H](C)NC(=O)CC=C[C@H]1C ? interval 2

In plain terms, what class is CC(CCN1CCCCc2nc(C)c(C)cc21)=NO[C@H](C)c1cn([C@H](CO)Cc2ccccc2)nn1 ? interval 3

In plain terms, what class is CCN1C(=O)[C@H]2[C@H]3[C@H](O)[C@H](O)CC(=O)[C@@H]3CC[C@H]2C1=O ? interval 2

In plain terms, what class is CO[C@H]1COC(=O)[C@H](C)NC(=O)[C@@H](C)COC(=O)[C@H]2CCCN2C(=O)CC=C[C@H]1C ? interval 1

In plain terms, what class is C[C@@H](c1ccccc1)N1C(=O)[C@H]2[C@H]3[C@H](O)[C@H](O)CC(=NOCc4ccccc4)[C@H]3CC[C@H]2C1=O ? interval 1

---

- protocol.notes: small-molecule microarray binders of probe aDKK1, primary screen, biochemical, biotinylated probe, 635/667 nm fluorescence (AID 1099);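 also: score merges 667nm spot fluorescence with signal to noise across triplicate slides; reference of the scale not given here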
- particulars: higher = more signal
Tag: TRUE if measured composite z-score is not below -0.2, FALSE if it is.

Answered examples (2):
{"columns": ["molecule", "discrete.label"],
 "data": [
  ["COc1ccc(O[C@H]2C=C[C@@H](c3ccccc3)O[C@@H]2CON=C(C)C)cc1", "TRUE"],
  ["CO[C@H]1COC(=O)CC=C[C@H](C)[C@@H](OC)COC(=O)[C@H](C)COC(=O)CC=C[C@@H]1C", "FALSE"]
]}

Next, consider the following molecule.
Item CC(C)(C)N1C(=O)[C@H]2[C@H]3[C@H](O)[C@H](O)CC(=NOCc4ccccc4)[C@H]3CC[C@H]2C1=O with composite z-score of -0.2 or above? TRUE
